Property: abundance fitness; scope: individual variants
B1: Protein piccolo, residues 1058 to 1114; numbered along this chain, Q9Y6V0 (parent)
chain: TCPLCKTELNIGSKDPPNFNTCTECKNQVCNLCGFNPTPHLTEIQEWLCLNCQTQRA

Variants of: B1
Assay name: abundance fitness (aPCA) (normalised: wild type 0, dead -1); higher = more abundant; growth selection in yeast, the domain comes from the species named
Condition label: Homo sapiens
Please respond with just the number, no unit label.

E43S
-0.2
L4E
-0.288
C25M
-0.742
C33E
-0.349
N18I
-0.5

QUERY: Which abundance fitness reading was recorded for the variant C33D ?
RESULT: -0.336

QUERY: Name the reported abundance fitness value associated with the variant N36F
RESULT: 0.044
